ASSAYED_SYSTEM: VEGFR-2 (human, UniProt P35968 20-1356)
Sequence (P35968 20-1356): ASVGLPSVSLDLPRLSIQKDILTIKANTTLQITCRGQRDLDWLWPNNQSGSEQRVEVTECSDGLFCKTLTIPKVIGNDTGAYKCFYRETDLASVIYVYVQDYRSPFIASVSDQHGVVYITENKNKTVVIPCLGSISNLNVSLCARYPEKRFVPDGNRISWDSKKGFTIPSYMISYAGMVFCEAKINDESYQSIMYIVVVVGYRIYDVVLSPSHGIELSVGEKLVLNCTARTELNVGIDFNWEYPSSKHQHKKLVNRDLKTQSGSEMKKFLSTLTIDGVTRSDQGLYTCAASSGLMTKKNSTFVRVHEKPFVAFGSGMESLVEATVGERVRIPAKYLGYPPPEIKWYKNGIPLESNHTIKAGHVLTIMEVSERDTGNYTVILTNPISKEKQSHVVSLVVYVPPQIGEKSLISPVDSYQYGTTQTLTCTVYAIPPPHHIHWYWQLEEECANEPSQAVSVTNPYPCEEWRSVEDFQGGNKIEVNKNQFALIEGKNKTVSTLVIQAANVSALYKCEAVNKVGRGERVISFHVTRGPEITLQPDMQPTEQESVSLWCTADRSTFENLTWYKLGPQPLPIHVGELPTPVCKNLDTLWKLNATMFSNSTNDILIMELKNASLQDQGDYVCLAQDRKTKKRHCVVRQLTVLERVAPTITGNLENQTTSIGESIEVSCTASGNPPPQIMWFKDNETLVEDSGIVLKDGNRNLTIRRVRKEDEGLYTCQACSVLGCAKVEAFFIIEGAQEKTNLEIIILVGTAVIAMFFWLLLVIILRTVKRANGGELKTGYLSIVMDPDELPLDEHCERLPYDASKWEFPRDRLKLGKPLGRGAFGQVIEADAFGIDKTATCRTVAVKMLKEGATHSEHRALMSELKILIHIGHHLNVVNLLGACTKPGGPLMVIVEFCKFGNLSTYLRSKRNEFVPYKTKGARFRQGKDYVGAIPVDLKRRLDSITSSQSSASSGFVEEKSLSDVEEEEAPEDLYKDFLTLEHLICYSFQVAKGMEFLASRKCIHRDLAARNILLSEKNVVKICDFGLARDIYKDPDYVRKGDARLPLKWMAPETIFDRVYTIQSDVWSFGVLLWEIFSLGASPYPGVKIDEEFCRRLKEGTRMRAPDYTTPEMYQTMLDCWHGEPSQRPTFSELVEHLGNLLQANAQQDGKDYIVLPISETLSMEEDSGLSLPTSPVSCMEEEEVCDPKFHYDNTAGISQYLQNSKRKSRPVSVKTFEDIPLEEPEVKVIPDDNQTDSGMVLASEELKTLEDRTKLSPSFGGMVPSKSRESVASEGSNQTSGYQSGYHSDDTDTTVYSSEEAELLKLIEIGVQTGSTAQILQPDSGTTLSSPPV
EXPERIMENTAL_DETAILS: cell-based or functional assay
Bridges are numbered along the chain shown (N, C = ends). Where no end group is shown, it is not given here. [ ]: non-standard residue; d: D form. hTyr = N[C@@H](CCc1ccc(O)cc1)C(=O)O; hPhe = N[C@@H](CCc1ccccc1)C(=O)O; Tle = CC(C)(C)[C@H](N)C(=O)O; 3Py6NH2 = not defined here
MEASURE: pERK Assay Results (AlphaLISA p-Erk1/2, HUVEC)

According to the records, this binder {CH2CO}-[3Py6NH2]W[Tle]DVKDDLYF[hTyr]DCG-NH2 (thioether N-14; not fully specified (residue 6); reading uncertain; also: homodimer: Lys6 joined to Lys6 of second copy by cPEG17c (Linker Structure No. 4)) [Peptide complex Dimer Structure No. 23] displays pERK Assay Results (AlphaLISA p-Erk1/2, HUVEC) of ≥ 50 % activity at 10 nM

According to the records, this binder {CH2CO}-WWVDVQDDLYF[hPhe]DCG (thioether N-14; also: dimer: C-termini joined by PEG12c-K-PEG12c linker) [Peptide complex Dimer Structure No. 9] displays pERK Assay Results (AlphaLISA p-Erk1/2, HUVEC) of < 50 % activity at 100 nM

According to the records, this binder {CH2CO}-WWVDVQDDLYFVACG (thioether N-14; also: dimer: Gly15 C-terminus joined to second copy by PEG12c-K-PEG12c) [Peptide complex Dimer Structure No. 10] displays pERK Assay Results (AlphaLISA p-Erk1/2, HUVEC) of < 50 % activity at 100 nM
